All figures here come from patent US20110097323A1.

# Measured On: CD16A F158 (human, UniProt P08637 17-208, limits assumed)
# Sequence (P08637 17-208 limits assumed): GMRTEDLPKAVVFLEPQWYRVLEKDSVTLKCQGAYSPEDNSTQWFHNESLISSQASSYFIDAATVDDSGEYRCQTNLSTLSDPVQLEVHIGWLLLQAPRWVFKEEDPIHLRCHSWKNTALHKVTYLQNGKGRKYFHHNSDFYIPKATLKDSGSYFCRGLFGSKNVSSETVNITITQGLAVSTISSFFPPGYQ
# Experiment: Table 3; relative to wild-type Fc; method not stated
Measurement Kind: binding relative to wild-type Fc (fold)
Provide a numeric answer; units are not to be included.

Looking up Fc variant F243L P247L D270E N421K (other, UniProt P01857-1 99-330, looked up, name in EU numbering, domain: Fc region; positions are EU index) EPKSCDKTHTCPPCPAPELLGGPSVFLLPPKLKDTLMISRTPEVTCVVVDVSHEEPEVKFNWYVDGVEVHNAKTKPREEQYNSTYRVVSVLTVLHQDWLNGKEYKCKVSNKALPAPIEKTISKAKGQPREPQVYTLPPSRDELTKNQVSLTCLVKGFYPSDIAVEWESNGQPENNYKTTPPVLDSDGSFFLYSKLTVDKSRWQQGKVFSCSVMHEALHNHYTQKSLSLSPGK , I found its binding relative to wild-type Fc (fold) recorded as 3.45

Looking up Fc variant R255L D270E P396L (other, UniProt P01857-1 99-330, looked up, name in EU numbering, domain: Fc region; positions are EU index) EPKSCDKTHTCPPCPAPELLGGPSVFLFPPKPKDTLMISLTPEVTCVVVDVSHEEPEVKFNWYVDGVEVHNAKTKPREEQYNSTYRVVSVLTVLHQDWLNGKEYKCKVSNKALPAPIEKTISKAKGQPREPQVYTLPPSRDELTKNQVSLTCLVKGFYPSDIAVEWESNGQPENNYKTTPLVLDSDGSFFLYSKLTVDKSRWQQGNVFSCSVMHEALHNHYTQKSLSLSPGK , I found its binding relative to wild-type Fc (fold) recorded as 1.65

Looking up Fc variant F243L D270E K392T P396L (other, UniProt P01857-1 99-330, looked up, name in EU numbering, domain: Fc region; positions are EU index) EPKSCDKTHTCPPCPAPELLGGPSVFLLPPKPKDTLMISRTPEVTCVVVDVSHEEPEVKFNWYVDGVEVHNAKTKPREEQYNSTYRVVSVLTVLHQDWLNGKEYKCKVSNKALPAPIEKTISKAKGQPREPQVYTLPPSRDELTKNQVSLTCLVKGFYPSDIAVEWESNGQPENNYTTTPLVLDSDGSFFLYSKLTVDKSRWQQGNVFSCSVMHEALHNHYTQKSLSLSPGK , I found its binding relative to wild-type Fc (fold) recorded as 2.44
